Taken from the RNAGym collection of RNA variant scans (doi:10.1073/pnas.2313332121).

B1: TPR t1 (parent)
chain: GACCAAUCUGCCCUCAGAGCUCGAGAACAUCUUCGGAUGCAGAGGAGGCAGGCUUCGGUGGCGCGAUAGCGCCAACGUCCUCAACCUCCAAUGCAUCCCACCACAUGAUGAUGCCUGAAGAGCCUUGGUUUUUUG

variants of: B1; experiment: polymerase ribozyme fitness, log enrichment relative to wild type (log ratio); higher = more active; in vitro selection for triplet polymerase activity
Catalogue of polymerase ribozyme fitness (log ratio) readings, one per entry.

Some entries whose results are on file:
| mutation-notation | reported |
| --- | --- |
| G45A C114A | -1.97 |
| G44C G61A A66G A75G | -2.01 |

We now examine a further variant.
polymerase ribozyme fitness (log ratio) for U21A C49A G63U is -2.05
